The origin of these recorded values is patent US11807625B2.

- test: PK of compound of Formula (Ia) after single subcutaneous dose of solution formulations in Wistar Han rats
- Type: in vivo
- test_conditions: male, Wistar Han, rat, plasma, sc, 50 mg/kg, Wistar Han rats, SC 50 mg/kg, 400 mg/mL solution Z (3.13% poloxamer 188), 8.00 h, Mean n = 4
- Experimental: Formulations containing the compound of Formula (Ia), or a pharmaceutically acceptable salt thereof, were prepared as solutions and optionally administered subcutaneously or intramuscularly to rats, rabbits, and/or dogs. A solution of about 400 mg/mL of the compound of Formula (Ia) having 19.14 w/w % water, 40.66 w/w % PEG 300, 35.20 w/w % of a sodium salt of a compound of Formula (Ia), and 5.00% ethanol was prepared. […]
measured_metric: concentration at 8 h (nM)

- molecular_string: "CC(C)(C#Cc1ccc(-c2ccc(Cl)c3c(NS(C)(=O)=O)nn(CC(F)(F)F)c23)c([C@H](Cc2cc(F)cc(F)c2)NC(=O)Cn2nc(C(F)(F)F)c3c2C(F)(F)[C@@H]2C[C@H]32)n1)S(C)(=O)=O"
  measured_metric: "concentration at 8 h"
  numeric_readout: 85.9

----------
- test: PK of compound of Formula (Ia) after single subcutaneous dose of solution formulations in Wistar Han rats
- Assay type: in vivo
- test_conditions: male, Wistar Han, rat, plasma, sc, 50 mg/kg, 168 h; mean, n = 3 rats; SC 50 mg/kg; solution V, 300 mg/mL

- molecular_string: "CC(C)(C#Cc1ccc(-c2ccc(Cl)c3c(NS(C)(=O)=O)nn(CC(F)(F)F)c23)c([C@H](Cc2cc(F)cc(F)c2)NC(=O)Cn2nc(C(F)(F)F)c3c2C(F)(F)[C@@H]2C[C@H]32)n1)S(C)(=O)=O"
  value_units: "nM"
  concentration at 168 h: 104

----------
- test: PK of compound of Formula (Ia) after single subcutaneous dose of solution formulations in Wistar Han rats
- Type: in vivo
- test_conditions: male, Wistar Han, rat, plasma, sc, 50 mg/kg, 1680 h; mean, n = 5 rats; SC 50 mg/kg; solution U, 500 mg/mL

- molecule: "CC(C)(C#Cc1ccc(-c2ccc(Cl)c3c(NS(C)(=O)=O)nn(CC(F)(F)F)c23)c([C@H](Cc2cc(F)cc(F)c2)NC(=O)Cn2nc(C(F)(F)F)c3c2C(F)(F)[C@@H]2C[C@H]32)n1)S(C)(=O)=O [compound of Formula (Ia)]"
  concentration at 1680 h, nM: 198

----------
- test: PK of compound of Formula (Ia) after single intramuscular dose of solution formulations in Wistar Han rats
- Format: in vivo
- test_conditions: male, Wistar Han, rat, plasma, im, 100 mg/kg, Solution K (~500 mg/mL; Na salt, water, PEG 300, ethanol); single IM 100 mg/kg; male Wistar Han rats; mean ± SD, n = 4; read-out: AUC0-168h
measured_metric: AUC(0-t)

- molecular_string: "CC(C)(C#Cc1ccc(-c2ccc(Cl)c3c(NS(C)(=O)=O)nn(CC(F)(F)F)c23)c([C@H](Cc2cc(F)cc(F)c2)NC(=O)Cn2nc(C(F)(F)F)c3c2C(F)(F)[C@@H]2C[C@H]32)n1)S(C)(=O)=O"
  measured_metric: "AUC(0-t)"
  result: "67.4 µM·h"

----------
- test: PK of compound of Formula (Ia) after single subcutaneous dose of solution formulations in Wistar Han rats
- Type: in vivo
- test_conditions: male, Wistar Han, rat, plasma, sc, 50 mg/kg, Wistar Han rats, SC 50 mg/kg, 400 mg/mL solution Y (water, PEG 300), 1.00 h, animals #1-#4

- molecular_string: "CC(C)(C#Cc1ccc(-c2ccc(Cl)c3c(NS(C)(=O)=O)nn(CC(F)(F)F)c23)c([C@H](Cc2cc(F)cc(F)c2)NC(=O)Cn2nc(C(F)(F)F)c3c2C(F)(F)[C@@H]2C[C@H]32)n1)S(C)(=O)=O"
  concentration at 1 h [µM]: 0.0287

----------
- test: PK of compound of Formula (Ia) after single subcutaneous dose of solution formulations in Wistar Han rats
- Assay type: in vivo
- test_conditions: male, Wistar Han, rat, plasma, sc, 50 mg/kg, Wistar Han rats, SC 50 mg/kg, 400 mg/mL solution Y (water, PEG 300), 3.00 h, animals #1-#4

- compound: "CC(C)(C#Cc1ccc(-c2ccc(Cl)c3c(NS(C)(=O)=O)nn(CC(F)(F)F)c23)c([C@H](Cc2cc(F)cc(F)c2)NC(=O)Cn2nc(C(F)(F)F)c3c2C(F)(F)[C@@H]2C[C@H]32)n1)S(C)(=O)=O [compound of Formula (Ia)]"
  value_units: "nM"
  concentration at 3 h: 51.3

----------
- test: PK of compound of Formula (Ia) after single subcutaneous dose of solution formulations in Wistar Han rats
- Assay type: in vivo
- test_conditions: male, Wistar Han, rat, plasma, sc, 50 mg/kg, 24.0 h; mean, n = 3 rats; SC 50 mg/kg; solution V, 300 mg/mL
measured_metric: concentration at 24 h (nM)

- compound: "CC(C)(C#Cc1ccc(-c2ccc(Cl)c3c(NS(C)(=O)=O)nn(CC(F)(F)F)c23)c([C@H](Cc2cc(F)cc(F)c2)NC(=O)Cn2nc(C(F)(F)F)c3c2C(F)(F)[C@@H]2C[C@H]32)n1)S(C)(=O)=O [compound of Formula (Ia)]"
  measured_metric: "concentration at 24 h"
  numeric_readout: 193

----------
- test: PK of compound of Formula (Ia) after single subcutaneous dose of solution formulations in beagle dogs
- Format: in vivo
- test_conditions: male, beagle, dog, plasma, sc, 12 mg/kg, male beagle dogs, single SC 12 mg/kg, 400 mg/mL solution Z (3.13% poloxamer 188), mean ± SD, n = 3; read-out: AUC0-168 h
- Method: Formulations containing the compound of Formula (Ia), or a pharmaceutically acceptable salt thereof, were prepared as solutions and optionally administered subcutaneously or intramuscularly to rats, rabbits, and/or dogs. A solution of about 400 mg/mL of the compound of Formula (Ia) having 17.00 w/w % water, 36.40 w/w % PEG 300, 35.20 w/w % of a sodium salt of a compound of Formula (Ia), 5.00 w/w % ethanol, and 6.40 w/w % poloxamer 188 was prepared. […]

- compound: "CC(C)(C#Cc1ccc(-c2ccc(Cl)c3c(NS(C)(=O)=O)nn(CC(F)(F)F)c23)c([C@H](Cc2cc(F)cc(F)c2)NC(=O)Cn2nc(C(F)(F)F)c3c2C(F)(F)[C@@H]2C[C@H]32)n1)S(C)(=O)=O [compound of Formula (Ia)]"
  value_units: "µM·h"
  AUC(0-t): 10.6

----------
- test: PK of compound of Formula (Ia) after single subcutaneous dose of solution formulations in Wistar Han rats
- Assay type: in vivo
- test_conditions: male, Wistar Han, rat, plasma, sc, 50 mg/kg, Wistar Han rats, SC 50 mg/kg, 400 mg/mL solution W (5.00% ethanol, 1.57% poloxamer 188), 2352 h, animals #1-#3

- compound: "CC(C)(C#Cc1ccc(-c2ccc(Cl)c3c(NS(C)(=O)=O)nn(CC(F)(F)F)c23)c([C@H](Cc2cc(F)cc(F)c2)NC(=O)Cn2nc(C(F)(F)F)c3c2C(F)(F)[C@@H]2C[C@H]32)n1)S(C)(=O)=O [compound of Formula (Ia)]"
  concentration at 2352 h (nM): 164

----------
- test: PK of compound of Formula (Ia) after single subcutaneous dose of solution formulations in beagle dogs
- Type: in vivo
- test_conditions: male, beagle, dog, plasma, sc, 12 mg/kg, 168 h; mean, n = 3 dogs; SC 12 mg/kg; solution T, 400 mg/mL
measured_metric: concentration at 168 h

- molecular_string: "CC(C)(C#Cc1ccc(-c2ccc(Cl)c3c(NS(C)(=O)=O)nn(CC(F)(F)F)c23)c([C@H](Cc2cc(F)cc(F)c2)NC(=O)Cn2nc(C(F)(F)F)c3c2C(F)(F)[C@@H]2C[C@H]32)n1)S(C)(=O)=O"
  result: "221 nM"

----------
- test: PK of compound of Formula (Ia) after single subcutaneous dose of solution formulations in beagle dogs
- Format: in vivo
- test_conditions: male, beagle, dog, plasma, sc, 12 mg/kg, beagle dogs, SC 12 mg/kg, 400 mg/mL solution Z (3.13% poloxamer 188), 2016 h, Mean n = 3
- Experimental: Formulations containing the compound of Formula (Ia), or a pharmaceutically acceptable salt thereof, were prepared as solutions and optionally administered subcutaneously or intramuscularly to rats, rabbits, and/or dogs. A solution of about 400 mg/mL of the compound of Formula (Ia) having 17.00 w/w % water, 36.40 w/w % PEG 300, 35.20 w/w % of a sodium salt of a compound of Formula (Ia), 5.00 w/w % ethanol, and 6.40 w/w % poloxamer 188 was prepared. […]
measured_metric: concentration at 2016 h (nM)

- molecular_string: "CC(C)(C#Cc1ccc(-c2ccc(Cl)c3c(NS(C)(=O)=O)nn(CC(F)(F)F)c23)c([C@H](Cc2cc(F)cc(F)c2)NC(=O)Cn2nc(C(F)(F)F)c3c2C(F)(F)[C@@H]2C[C@H]32)n1)S(C)(=O)=O"
  value_units: "nM"
  numeric_readout: 15.2
